Each recorded value in this set is attributed to PubChem BioAssay (NCATS).

Test: BET inhibitor-based combinations targeting novel dependencies in MECOM-rearranged (r) AML: AML-191 cell line (AID 2202236; further: nearly all actives have a fitted effect of over 35% in size)
Details: AML-191 viability, CellTiter-Glo luminescence, 48 h; series mostly up to 46 µM
Inconclusive results are not listed. The source made the active and inactive calls. The call rests on the fitted dose curve; in most records, active means well fitted inhibition curve with a large enough effect; inconclusive means small, poorly fitted or top-dose-only effect; inactive means flat fitted curve, though single readings scatter.
Could you please pick one outcome from this set? t for active, f for inactive

See these solved cases before continuing.
CNc1nccc(-c2cccnc2Oc2cc(C(=O)Nc3cccc(C(F)(F)F)c3)ccc2C)n1 : t
Cc1ccc(NC(=O)C2(c3ccc4c(c3)OC(F)(F)O4)CC2)nc1-c1cccc(C(=O)O)c1 : f
O=C(/C=C/N1C[C@H]2C[C@@H]1CN2c1ccccn1)c1ccccc1O : f
Cc1ccc(S(=O)(=O)Cc2nc(-c3ccc(C(=O)NCc4cccnc4)cc3)oc2C)cc1 : t
NC(=O)Nc1cc(-c2cccc(F)c2)sc1C(=O)N[C@H]1CCCNC1 : t
CS(=O)(=O)c1ccc(Oc2cc(F)cc(C#N)c2)c2c1[C@H](O)C(F)(F)C2 : f

Which result was noted for this compound in the test: CC(O)c1cc(C(=O)N[C@@H](C)Cn2ccc(-c3ccc(C#N)c(Cl)c3)n2)n[nH]1 (some centres undefined)
t

Which result was noted for this compound in the test: Cc1cc2c(cc1CC(=O)c1sccc1S(=O)(=O)Nc1onc(C)c1Cl)OCO2
f

Which result was noted for this compound in the test: NC(=O)c1ccc(-c2nc(-c3ccc4c(c3)OCO4)c(-c3ccccn3)[nH]2)cc1
f

###

Biological target: Aldehyde dehydrogenase, mitochondrial (Homo sapiens)
Assay: qHTS for Inhibitors of the Aldehyde Dehydrogenase Family (ALDH2) Primary screen (AID 2061308); further: nearly all actives have a fitted effect of over 55% in size
Conditions: ALDH2 enzyme inhibition qHTS, 1536-well; series mostly up to 56 µM
Records with an inconclusive call do not appear. Calls of active or inactive are those of the source. The call rests on the fitted dose curve; in most records, active means well fitted inhibition curve with a large enough effect; inconclusive means small, poorly fitted or top-dose-only effect; inactive means flat fitted curve, though single readings scatter.
value type: activity change, negative = inhibition

O=C(NC1CCOCC1)c1ccc(-c2cc(-c3cn[nH]c3-c3ccccn3)ccn2)cc1 : inactive
C[C@@H]1O[C@@H](O[C@H]2[C@H](O)[C@@H](O)[C@H](OC(=O)[C@]34CCC(C)(C)C[C@H]3C3=CCC5[C@@]6(C)CC[C@H](O[C@@H]7O[C@H](C(=O)O)[C@@H](O)[C@H](O)[C@H]7O)C(C)(C)C6CC[C@@]5(C)[C@]3(C)CC4)O[C@@H]2CO)[C@H](O)[C@H](O)[C@H]1O (stereo partly drawn) : inactive
C=CC(=O)Nc1cccc(Nc2nc(Nc3ccc(Oc4ccnc(C(=O)NC)c4)cc3)ncc2F)c1 : inactive

###

Test: BET inhibitor-based combinations targeting novel dependencies in MECOM-rearranged (r) AML: AML-191 cell line (AID 2202236)
Details: AML-191 viability, CellTiter-Glo luminescence, 48 h; series mostly up to 46 µM
Results filed as inconclusive are left out. Active and inactive are the calls of the source. The call rests on the fitted dose curve; in most records, active means well fitted inhibition curve with a large enough effect; inconclusive means small, poorly fitted or top-dose-only effect; inactive means flat fitted curve, though single readings scatter.
Could you please pick one outcome from this set? Y = active, N = inactive

See these solved cases before continuing.
Cn1ncc(Cl)c1-c1cc(C(=O)N[C@H](CN)Cc2cccc(F)c2)sc1Cl : Y
CC(=O)O[C@H]1C[C@@H]2CC[C@H]3[C@H]4C[C@H]([N+]5(C)CCCCC5)[C@@H](OC(C)=O)[C@@]4(C)CC[C@@H]3[C@@]2(C)C[C@H]1[N+]1(C)CCCCC1 : N
O=C(C(c1ccccc1)c1ccccc1)N1CCN(CC(O)COc2cccc3ncccc23)CC1 (stereo unspecified) : Y
c1cnc2cc3c(cc2n1)C1CNCC3C1 : N
COc1cc2c(cc1OC)[C@@H]1C(=O)c3ccc4c(c3O[C@@H]1CO2)C=CC(C)(C)O4 : Y
CC(C(C)N1CC(=O)NC(=O)C1)N1CC(=O)NC(=O)C1 (stereo unspecified) : Y

Which result was noted for this molecule in the test: COc1ccc(-c2c(-c3ccc(O)cc3O)n[nH]c2C)cc1
N

Which result was noted for this molecule in the test: COc1ccc2c(OCc3nnc4ccc(-c5ccccc5)nn34)ccnc2c1
N

Which result was noted for this molecule in the test: CN1CCN2c3ncccc3Cc3ccccc3C2C1 (stereo unspecified)
N

Which result was noted for this molecule in the test: CCCCC(F)(F)[C@@]1(O)CC[C@H]2[C@H](CC(=O)[C@@H]2CCCCCCC(=O)O)O1
N

Which result was noted for this molecule in the test: CCOC(=O)c1ncn2c1CN(C)C(=O)c1cc(F)ccc1-2
N
